- Test system: IGROV1 ovarian
- measurement description: NCI-60 one-dose screen, 48 h (100 = growth as untreated, 0 = no growth, -100 = all killed)
- stated conditions: 10 µM
Compounds without any hit were thinned out: in the full panel of roughly 83,000, 20% have a hit.
observed property: growth (%)
Quick note: give the figure in %, leave out the unit.

// worked examples, growth included
> print(dat)
                                   compound  scale.unit  endpoint.result
1  O=C1CCC(N2Cc3cc(NC(=O)COc4ccccc4)ccc3C2=O)C(=O)N1 (configuration not stated)           %             45.8
2  O=C(CSc1nnc(-c2c[nH]c3ccccc23)n1-c1ccccc1)c1ccccc1           %             55.1
3  Cc1ccc(C(=O)N/C(=C2/OCCN2C)[P+](c2ccccc2)(c2ccccc2)c2ccccc2)cc1           %             69.9
4       COc1ccccc1NCc1ccc(CO)n1-c1ccc(C)cc1           %             91.5
5  Cc1ccc(NCC(=O)Nn2c(COc3ccccc3)nc3ccccc3c2=O)cc1           %             82.4

For NC1=NC(c2ccccc2Cl)N=C(Nc2nn[nH]n2)N1 (configuration not stated) , what is its reported growth?
115

For CC(C)C1=C[C@@]23CC[C@@H]4[C@](C)(CCC[C@]4(C)C(=O)NCc4ccccc4)[C@H]2C[C@@H]1[C@H]1C(=O)CCC(=O)[C@H]13 , what is its reported growth?
90.6

For Cc1noc2c(Cc3ccc([N+](=O)[O-])cc3)nn(CC(=O)N/N=C/c3ccc(Cl)cc3)c(=O)c12 , what is its reported growth?
63.2
